# System: Phakopsora pachyrhizi, strain with amino acid substitution F129L in the mitochondrial cytochrome b protein
# measurement-protocol: Protective control of soybean rust on soybeans (PHAKPA P6)
# Type: in vivo
# experimental-parameters: Table 1; protective P6; 16 ppm; F129L strain
endpoint-name: % PHAKPA (F129L) Disease level, P6 at 16 ppm (%)
API: value field is a number in %; no unit string.

Record excerpt, results attached:
{"smiles": "CNC(=O)/C(=N/OC)c1cccc(C)c1CO/N=C(\\C)c1ccc(-c2ccc(F)cc2)cc1C(F)(F)F", "scale-unit": "%", "reported": 10}
{"smiles": "CNC(=O)/C(=N/OC)c1cccc(C)c1CO/N=C(\\C)c1c(F)cc(Br)cc1OC(F)(F)F", "scale-unit": "%", "reported": 4}
{"smiles": "CO/C=C(/C(=O)OC)c1cccc(C)c1CO/N=C(\\C)c1ccccc1C(F)(F)F", "scale-unit": "%", "reported": 2}

## Task I have this molecule here, CO/C=C(/C(=O)OC)c1cccc(C)c1CO/N=C(\C)c1ccc(OC)cc1C(F)(F)F , and I need its recorded % PHAKPA (F129L) Disease level, P6 at 16 ppm.
## Result 0

## Task I have this molecule here, COC=C(C(=O)OC)c1cccc(C)c1CON=C(C)c1ccc(F)c(F)c1OC(F)(F)F , and I need its recorded % PHAKPA (F129L) Disease level, P6 at 16 ppm.
## Result 1

## Task I have this molecule here, CO/C=C(/C(=O)OC)c1cccc(C)c1CO/N=C(\C)c1ccc(Cl)c(F)c1OC(F)(F)F , and I need its recorded % PHAKPA (F129L) Disease level, P6 at 16 ppm.
## Result 14

## Task I have this molecule here, CO/C=C(/C(=O)OC)c1cccc(C)c1CO/N=C(\C)c1cccc(C(F)(F)F)c1 , and I need its recorded % PHAKPA (F129L) Disease level, P6 at 16 ppm.
## Result 0

## Task I have this molecule here, CNC(=O)/C(=N/OC)c1cccc(OC)c1CO/N=C(\C)c1cccc(C(F)(F)F)c1 , and I need its recorded % PHAKPA (F129L) Disease level, P6 at 16 ppm.
## Result 6
